Cited source: a melting point compilation (Tetko et al.; mined from patent text by program, amines drawn as free bases though some values may be those of a salt)

Listed here are compounds together with their documented melting point.
OBSERVABLE: melting point

compound="CCC(Cc1cc(C(C)(C)C)c(O)c(C(C)(C)C)c1)[N+](=O)[O-] (stereo unspecified)" observable="melting point" value_measured="55 to 60 °C"
compound=O=C1O[C@@H](Cn2ccnn2)CN1c1ccc(-c2ccc(CO)nc2)c(F)c1 observable="melting point" value_measured="177 °C"
compound=Cc1c(SCCCCS)ccnc1CO observable="melting point" value_measured="58 to 63 °C"
compound=CCOC(=O)CCN(CNC(=O)OC(C)(C)C)C(=O)Cn1cc(C)c(=O)[nH]c1=O observable="melting point" value_measured="174 to 175 °C"
compound=Cn1nc2c(N)nc3ncccc3c2c1CC(C)(C)C observable="melting point" value_measured="323 to 326 °C"
compound="O=C1NC(=O)C(Cc2ccc(N3CCC(NC[C@H](O)c4cccc(Cl)c4)CC3)cc2)S1 (stereo partly specified)" observable="melting point" value_measured="195 to 198 °C"
compound=COc1ccc(N(C)CCCOc2ccc3ccccc3c2)cc1 observable="melting point" value_measured="112 °C"
compound=N=C(N)c1ccc(-n2cnn(-c3ccc(CCC(=O)O)cc3)c2=O)cc1 observable="melting point" value_measured="313 to 316 °C"
compound=CN1CC(c2cc(CCc3ccccc3)cnn2)=C(O)C1=O observable="melting point" value_measured="203 to 205 °C"
compound=CCCOc1ccc(OC)cc1C1=NC(=O)C2=NC=NC2=N1 observable="melting point" value_measured="233 to 234 °C"
compound=O=C(N[C@H]1CC[C@H](CCN2CCN(c3nccc4c3OCC4)CC2)CC1)C1CCC1 observable="melting point" value_measured="186 °C"
compound="Cn1c([N+](=O)[O-])cnc1C1=NO[C@@H]2CCCCCCCCCC[C@@H]12 (relative stereo)" observable="melting point" value_measured="121 to 122 °C"
compound=CCOC(=O)c1c(C)nn(C)c1CS(=O)(=O)NC(=O)Nc1nc(OC)cc(OC)n1 observable="melting point" value_measured="190 °C"
compound=Cc1ccc(C(=O)c2ccc(O)c(CC(=O)O)c2)cc1 observable="melting point" value_measured="218 °C"
compound="NC(=O)N1C(=O)C(C(=O)c2cc(Cl)cs2)c2ncc(Cl)cc21 (stereo unspecified)" observable="melting point" value_measured="> 250 °C"
compound="Cc1ccc2c(c1)C(c1ccc(OCC(=O)O)cc1)C(=O)O2 (stereo unspecified)" observable="melting point" value_measured="198 to 203 °C"
compound=CC(C)N(CCOc1ccc2c(=O)c3ccc(OCCN(C(C)C)C(C)C)cc3oc2c1)C(C)C observable="melting point" value_measured="118 °C"
compound="CC1OC(=S)c2c(O)cccc21 (stereo unspecified)" observable="melting point" value_measured="39 to 41 °C"
compound=Clc1cc(Cl)nc(N2CCOCC2)n1 observable="melting point" value_measured="140 °C"
compound=O=C(NC(=O)N1CCC(Cc2ccccc2)CC1)c1ccc2[nH]ccc2c1 observable="melting point" value_measured="110 to 112 °C"
compound=Nc1cc(Cl)ccc1C(=O)NCC1CCN(C(c2ccccc2)c2ccccc2)CC1 observable="melting point" value_measured="161 to 162 °C"

###

OBSERVABLE: melting point

compound=COc1ccc(N2CNC(=O)C23CCN(CCCN(c2ccccc2)c2ccccc2)CC3)cc1 value_measured="156 to 158 °C"
compound=Nc1cccc(-c2ccc(CCN3CCN(C(=O)C4CCCC4)CC3)cc2)n1 value_measured="185 to 187 °C"
compound=COc1ccc2[nH]c(SCc3nccc(N4CCCC4)c3Cl)nc2c1 value_measured="131 to 133 °C"
compound=O=C(CCn1cnc2c(=O)[nH]cnc21)Nc1ccc(C(=O)O)cc1 value_measured="319 to 321 °C"
compound=CC(C)(C)OC(=O)N[C@H]1CC[C@H](CCN2CCCC2)CC1 value_measured="110 °C"
compound=CCOP(=O)(/C=C/c1cn(-c2ccccc2)nc1OCc1ccc(OCc2nc(-c3ccccc3)oc2C)cc1)OCC value_measured="109 to 110 °C"
compound=CCCc1nc2c(N)nc3ccccc3c2n1CC(C)(C)OCCS(C)(=O)=O value_measured="203 to 206 °C"
compound=CC(C)(C)OC(=O)Nc1cc(OCc2ccccc2)c2ccc(C#N)cc2c1 value_measured="145 °C"
compound=O=C1c2ccccc2S(=O)(=O)N1CSc1nnc(SCCN2CCOCC2)s1 value_measured="129 to 131 °C"
compound=Nc1ccc(Oc2ncc(-c3ccccc3)c(C(F)(F)F)n2)cc1 value_measured="123 to 126 °C"
compound="O=[N+]([O-])c1ccc(C2CCc3c(CCCCCCO)n[nH]c3C2)cc1 (configuration not stated)" value_measured="69 to 70 °C"
compound=Cc1ccc2c(-c3cccc(O)c3)nc(=O)n(C(C)C)c2c1 value_measured="270 to 272 °C"
compound=CC(=O)c1c(-c2ccc(Cl)cc2)c(-c2ccc(Cl)cc2)n[nH]c1=O value_measured="267 to 269 °C"
compound=CCOC(=O)c1csc(-c2ccc3c(=O)n(CC(C)C)c(CNC(=O)OC(C)(C)C)c(-c4ccccc4)c3c2)n1 value_measured="170 to 171 °C"
compound=CCCOCc1cc2c(-c3ccc(OCc4ccccc4)cc3)c(CC)c3cccc1n32 value_measured="78 to 80 °C"
compound=COc1nc2cc(Cl)c(Cl)c([N+](=O)[O-])c2nc1OC value_measured="184 to 186 °C"
compound="O[C@@H]1CNCC[C@H]1Oc1ccc(F)cc1 (relative stereo)" value_measured="121 to 123 °C"
compound=CC(C)(C(=O)O)C(c1ccc(OCc2ccc3ccccc3n2)cc1)c1ccc(OCc2ccc3ccccc3n2)cc1 value_measured="124 to 127 °C"
compound="CC(C)(C)OC(=O)NC(Cc1ccccc1)C(=O)NC(Cc1ccccc1)C(=O)NCCc1c[nH]cn1 (configuration not stated)" value_measured="175 to 177 °C"
compound="COc1ccc(NC(C)c2oc3ccc(F)cc3c(=O)c2-c2cccc(F)c2)cc1 (configuration not stated)" value_measured="152 to 156 °C"
compound=COC(=O)CCC/C=C\[C@@H]1C[C@@H](NS(=O)(=O)c2ccc(Cl)cc2)CN1S(=O)(=O)c1ccc(Cl)cc1 value_measured="95 to 96 °C"
compound=CC(C)Nc1cccnc1N1CCN(C(=O)c2ccc(C(=O)N[C@H](CO)CC3CCCCC3)cc2)CC1 value_measured="139 to 140 °C"
compound=CCCC(CC)(CC)C(=O)O[C@H]1C[C@H](O)C=C2C=C[C@H](C)[C@H](CC[C@@H]3C[C@@H](O)CC(=O)O3)[C@H]21 value_measured="130 to 131 °C"
compound=COC(=O)C(=CNC1CC1)C(=O)C=Cc1ccc2c(c1)OCO2 value_measured="158 to 160 °C"
compound="CCCCCCCCc1ccc(N(c2ccc(CCCCCCCC)cc2)C2(c3ccc(N(CC)CC)cc3)OC(=O)c3nccnc32)cc1 (configuration not stated)" value_measured="180 to 181 °C"
compound=FC(F)C(F)(F)Oc1cccc(Nc2nccc(-c3cncc4ccccc34)n2)c1 value_measured="158 to 160 °C"
compound="COc1ccc(N2CCN(CCC3CN(C)C(=O)O3)CC2)cc1OC (configuration not stated)" value_measured="90 to 92 °C"
compound=CCCc1[nH]c2cc(C(N)=O)ccc2c1C(=O)C1CCC1 value_measured="253 to 255 °C"
compound=COc1ccc2cc(-c3ccc(S(C)(=O)=O)cc3)ccc2n1 value_measured="182 to 184 °C"
compound=COC(=O)c1cc2ccc(Cl)c(Cl)c2o1 value_measured="162 °C"
compound=COc1ccc2c(c1)CCc1cc(OC)ccc1N2 value_measured="123 to 124 °C"
compound=CC(=NOCCO)c1ccc(S(=O)(=O)c2ccccc2)cc1 value_measured="87 to 88 °C"
compound=COc1cc(N(C(=O)[C@@H](N)Cc2cnc[nH]2)S(=O)(=O)c2ccc3c(ccn3C)c2)cc(OC)c1OC value_measured="175 to 177 °C"
compound=CCOC(=O)CCN1CCN(CC=CC(=O)Nc2cc3c(Nc4ccc(F)c(Cl)c4)ncnc3cc2OCC2CC2)CC1 value_measured="183 to 185 °C"
compound=O=C1NCCn2c1cc1ccccc12 value_measured="228 to 230 °C"
compound="O=C(Cc1ccccc1)N[C@@H]1C(=O)N2C(C(=O)O)=C(OS(=O)(=O)C(F)(F)F)NC[C@H]12 (racemic)" value_measured="100 to 102 °C"
compound=Nc1ccc(O)c(-c2cccs2)c1 value_measured="130 to 132 °C"
